The values you see were collected from the Immune Epitope Database (IEDB).

Biological target: HLA-A*01:01
Assay: IEDB peptide-MHC binding, purified MHC/competitive/fluorescence; bounds were set here for any values at or beyond the usual limits of such assays
Details: source organism: Zaire ebolavirus
ENDPOINT_LABEL: pIC50
Units for pIC50: none; it is -log10 of a concentration expressed in mol/L.

-- ask Recorded pIC50 for QSEHSFEEM , please?
-- reply 4.40

====

Biological target: HLA-A*30:01
Experiment: IEDB peptide-MHC binding, purified MHC/direct/fluorescence; filed as Kd, often an IC50 or EC50 that approximates it; bounds were set here for any values at or beyond the usual limits of such assays
Details: source organism: Hantaan virus Q32
pKd: −log10 of the molar value.
ENDPOINT_LABEL: pKd

-- ask # query: pKd | item NYYAPRIQF | system: HLA-A*30:01
-- reply ≤ 4.70

====

Molecular target: HLA-B*46:01
Experiment: IEDB peptide-MHC binding, purified MHC/competitive/fluorescence; filed as Kd, often an IC50 or EC50 that approximates it; bounds were set here for any values at or beyond the usual limits of such assays
Conditions: source organism: Influenza A virus (A/swine/Italy/1521/98(H1N2))
ENDPOINT_LABEL: pKd
Units for pKd: none; it is -log10 of a concentration expressed in mol/L.

-- ask Recorded pKd for FLKDVMESM , please?
-- reply 7.62

====

Target: HLA-B*18:01
Experiment: IEDB peptide-MHC binding, purified MHC/direct/fluorescence; filed as Kd, often an IC50 or EC50 that approximates it; bounds were set here for any values at or beyond the usual limits of such assays
Details: source organism: Salmonella enterica
ENDPOINT_LABEL: Kd (µM)
The answer is to be given in µM; state only the numeric part.

-- ask # query: Kd | item YPVWLTKHL | system: HLA-B*18:01
-- reply 2.15

====

Target: HLA-A*02:01
Assay: IEDB peptide-MHC binding, purified MHC/direct/fluorescence; filed as Kd, often an IC50 or EC50 that approximates it; bounds were set here for any values at or beyond the usual limits of such assays
Conditions: source organism: Aggregatibacter actinomycetemcomitans
ENDPOINT_LABEL: Kd

-- ask # query: Kd | item RSEVELCIY | system: HLA-A*02:01
-- reply ≥ 20 µM

====

Target: HLA-A*69:01
Assay: IEDB peptide-MHC binding, purified MHC/competitive/fluorescence; filed as Kd, often an IC50 or EC50 that approximates it; bounds were set here for any values at or beyond the usual limits of such assays
Details: source organism: Human immunodeficiency virus 1
pKd: −log10 of the molar value.
ENDPOINT_LABEL: pKd

-- ask Recorded pKd for VLYCVHQRV , please?
-- reply ≤ 4.70

====

Molecular target: HLA-B*45:06
Assay: IEDB peptide-MHC binding, purified MHC/competitive/fluorescence; filed as Kd, often an IC50 or EC50 that approximates it; bounds were set here for any values at or beyond the usual limits of such assays
Details: source organism: Mus musculus
pKd: −log10 of the molar value.
ENDPOINT_LABEL: pKd

-- ask Recorded pKd for GVPKTHLEL , please?
-- reply ≤ 5.30

====

Listed here: items and their measured pKd.
Target: HLA-A*02:01
Assay: IEDB peptide-MHC binding, purified MHC/competitive/radioactivity; filed as Kd, often an IC50 or EC50 that approximates it; bounds were set here for any values at or beyond the usual limits of such assays
Conditions: source organism: Lassa virus Josiah
Units for pKd: none; it is -log10 of a concentration expressed in mol/L.

QAVNNLVEL : 5.34

-- ask Recorded pKd for RLLGTFTWT , please?
-- reply 7.47

====

Target: HLA-B*08:01
Assay: IEDB peptide-MHC binding, purified MHC/competitive/fluorescence; filed as Kd, often an IC50 or EC50 that approximates it; bounds were set here for any values at or beyond the usual limits of such assays
Settings: source organism: Giardia lamblia ATCC 50803
ENDPOINT_LABEL: Kd (µM)
The answer is to be given in µM; state only the numeric part.

-- ask Recorded Kd for EIRHRSGIQ , please?
-- reply 9

====

Target: HLA-B*07:02
Experiment: IEDB peptide-MHC binding, purified MHC/direct/fluorescence; filed as Kd, often an IC50 or EC50 that approximates it; bounds were set here for any values at or beyond the usual limits of such assays
Conditions: source organism: Vibrio vulnificus
ENDPOINT_LABEL: Kd

-- ask Recorded Kd for NAFGWENAY , please?
-- reply 350 nM

====

Molecular target: HLA-A*24:02
Assay: IEDB peptide-MHC binding, purified MHC/competitive/radioactivity; filed as Kd, often an IC50 or EC50 that approximates it; bounds were set here for any values at or beyond the usual limits of such assays
Conditions: source organism: Lymphocytic choriomeningitis virus (strain Armstrong)
pKd: −log10 of the molar value.
ENDPOINT_LABEL: pKd

Reference set (2 entries):
QFIHFYREPV : ≤ 4.15
VKIPTHRHI : ≤ 4.11

Proceeding to the next sequence to report its pKd.
-- ask # query: pKd | item QYVRSGKDHV | system: HLA-A*24:02
-- reply ≤ 4.15

====

Biological target: HLA-A*26:01
Experiment: IEDB peptide-MHC binding, purified MHC/direct/fluorescence; filed as Kd, often an IC50 or EC50 that approximates it; bounds were set here for any values at or beyond the usual limits of such assays
Conditions: source organism: Mycobacterium tuberculosis
ENDPOINT_LABEL: Kd

-- ask Recorded Kd for NTARLMAGA , please?
-- reply ≥ 20 µM

====

Target: HLA-B*15:01
Test: IEDB peptide-MHC binding, purified MHC/direct/fluorescence; filed as Kd, often an IC50 or EC50 that approximates it; bounds were set here for any values at or beyond the usual limits of such assays
Settings: source organism: Haemophilus influenzae
ENDPOINT_LABEL: Kd
Include the unit right after the number.

-- ask Recorded Kd for LAEQFSGEY , please?
-- reply 374 nM

====

Target: HLA-A*30:02
Assay: IEDB peptide-MHC binding, purified MHC/competitive/radioactivity; filed as Kd, often an IC50 or EC50 that approximates it; bounds were set here for any values at or beyond the usual limits of such assays
Conditions: source organism: Dengue virus 2 Jamaica/1409/1983
Listed here: items and their measured pKd.
Units for pKd: none; it is -log10 of a concentration expressed in mol/L.

MSYSMCTGKF : 5.96

-- ask Recorded pKd for RNPKNENDQY , please?
-- reply 7.68

====

Listed here: items and their measured Kd.
Biological target: HLA-A*02:03
Experiment: IEDB peptide-MHC binding, purified MHC/competitive/radioactivity; filed as Kd, often an IC50 or EC50 that approximates it; bounds were set here for any values at or beyond the usual limits of such assays
Conditions: source organism: Vaccinia virus Copenhagen

-- ask Recorded Kd for KLYIALCKV , please?
-- reply 1.41 nM

-- ask Recorded Kd for LIAGIILLI , please?
-- reply 38.5 nM

====

Molecular target: HLA-B*46:01
Assay: IEDB peptide-MHC binding, purified MHC/direct/fluorescence; filed as Kd, often an IC50 or EC50 that approximates it; bounds were set here for any values at or beyond the usual limits of such assays
Settings: source organism: Salmonella enterica
pKd: −log10 of the molar value.
ENDPOINT_LABEL: pKd

-- ask # query: pKd | item EIIFYHPTF | system: HLA-B*46:01
-- reply ≤ 4.70

====

Target: HLA-C*15:02
Assay: IEDB peptide-MHC binding, purified MHC/direct/fluorescence; filed as Kd, often an IC50 or EC50 that approximates it; bounds were set here for any values at or beyond the usual limits of such assays
Conditions: source organism: human gammaherpesvirus 4
ENDPOINT_LABEL: pKd
Units for pKd: none; it is -log10 of a concentration expressed in mol/L.

-- ask Recorded pKd for TVCGGIMFL , please?
-- reply 5.61

====

Molecular target: HLA-A*11:01
Experiment: IEDB peptide-MHC binding, purified MHC/competitive/fluorescence; bounds were set here for any values at or beyond the usual limits of such assays
Conditions: source organism: Vaccinia virus WR
Listed here: items and their measured pIC50.
Units for pIC50: none; it is -log10 of a concentration expressed in mol/L.

TCKAFGLYK : 5.94

Proceeding to the next sequence to report its pIC50.
-- ask Recorded pIC50 for LVDYGLVSK , please?
-- reply 5.88

====

Target: HLA-A*68:01
Assay: IEDB peptide-MHC binding, purified MHC/competitive/radioactivity; filed as Kd, often an IC50 or EC50 that approximates it; bounds were set here for any values at or beyond the usual limits of such assays
Details: source organism: Dengue virus 4 Philippines/H241/1956
Listed here: items and their measured Kd.
The answer is to be given in nM; state only the numeric part.

Reference set (3 entries):
TAKEVALLR : 75.1
MTIIGRRLQR : 10.5
TTILTPMLR : 10.9

-- ask Recorded Kd for KTFDTEYPK , please?
-- reply 104
